Target: voltage-dependent T-type calcium channel subunit alpha-1G (Cav3.2) (Homo sapiens, UniProt O95180)
Sequence (O95180 whole entry): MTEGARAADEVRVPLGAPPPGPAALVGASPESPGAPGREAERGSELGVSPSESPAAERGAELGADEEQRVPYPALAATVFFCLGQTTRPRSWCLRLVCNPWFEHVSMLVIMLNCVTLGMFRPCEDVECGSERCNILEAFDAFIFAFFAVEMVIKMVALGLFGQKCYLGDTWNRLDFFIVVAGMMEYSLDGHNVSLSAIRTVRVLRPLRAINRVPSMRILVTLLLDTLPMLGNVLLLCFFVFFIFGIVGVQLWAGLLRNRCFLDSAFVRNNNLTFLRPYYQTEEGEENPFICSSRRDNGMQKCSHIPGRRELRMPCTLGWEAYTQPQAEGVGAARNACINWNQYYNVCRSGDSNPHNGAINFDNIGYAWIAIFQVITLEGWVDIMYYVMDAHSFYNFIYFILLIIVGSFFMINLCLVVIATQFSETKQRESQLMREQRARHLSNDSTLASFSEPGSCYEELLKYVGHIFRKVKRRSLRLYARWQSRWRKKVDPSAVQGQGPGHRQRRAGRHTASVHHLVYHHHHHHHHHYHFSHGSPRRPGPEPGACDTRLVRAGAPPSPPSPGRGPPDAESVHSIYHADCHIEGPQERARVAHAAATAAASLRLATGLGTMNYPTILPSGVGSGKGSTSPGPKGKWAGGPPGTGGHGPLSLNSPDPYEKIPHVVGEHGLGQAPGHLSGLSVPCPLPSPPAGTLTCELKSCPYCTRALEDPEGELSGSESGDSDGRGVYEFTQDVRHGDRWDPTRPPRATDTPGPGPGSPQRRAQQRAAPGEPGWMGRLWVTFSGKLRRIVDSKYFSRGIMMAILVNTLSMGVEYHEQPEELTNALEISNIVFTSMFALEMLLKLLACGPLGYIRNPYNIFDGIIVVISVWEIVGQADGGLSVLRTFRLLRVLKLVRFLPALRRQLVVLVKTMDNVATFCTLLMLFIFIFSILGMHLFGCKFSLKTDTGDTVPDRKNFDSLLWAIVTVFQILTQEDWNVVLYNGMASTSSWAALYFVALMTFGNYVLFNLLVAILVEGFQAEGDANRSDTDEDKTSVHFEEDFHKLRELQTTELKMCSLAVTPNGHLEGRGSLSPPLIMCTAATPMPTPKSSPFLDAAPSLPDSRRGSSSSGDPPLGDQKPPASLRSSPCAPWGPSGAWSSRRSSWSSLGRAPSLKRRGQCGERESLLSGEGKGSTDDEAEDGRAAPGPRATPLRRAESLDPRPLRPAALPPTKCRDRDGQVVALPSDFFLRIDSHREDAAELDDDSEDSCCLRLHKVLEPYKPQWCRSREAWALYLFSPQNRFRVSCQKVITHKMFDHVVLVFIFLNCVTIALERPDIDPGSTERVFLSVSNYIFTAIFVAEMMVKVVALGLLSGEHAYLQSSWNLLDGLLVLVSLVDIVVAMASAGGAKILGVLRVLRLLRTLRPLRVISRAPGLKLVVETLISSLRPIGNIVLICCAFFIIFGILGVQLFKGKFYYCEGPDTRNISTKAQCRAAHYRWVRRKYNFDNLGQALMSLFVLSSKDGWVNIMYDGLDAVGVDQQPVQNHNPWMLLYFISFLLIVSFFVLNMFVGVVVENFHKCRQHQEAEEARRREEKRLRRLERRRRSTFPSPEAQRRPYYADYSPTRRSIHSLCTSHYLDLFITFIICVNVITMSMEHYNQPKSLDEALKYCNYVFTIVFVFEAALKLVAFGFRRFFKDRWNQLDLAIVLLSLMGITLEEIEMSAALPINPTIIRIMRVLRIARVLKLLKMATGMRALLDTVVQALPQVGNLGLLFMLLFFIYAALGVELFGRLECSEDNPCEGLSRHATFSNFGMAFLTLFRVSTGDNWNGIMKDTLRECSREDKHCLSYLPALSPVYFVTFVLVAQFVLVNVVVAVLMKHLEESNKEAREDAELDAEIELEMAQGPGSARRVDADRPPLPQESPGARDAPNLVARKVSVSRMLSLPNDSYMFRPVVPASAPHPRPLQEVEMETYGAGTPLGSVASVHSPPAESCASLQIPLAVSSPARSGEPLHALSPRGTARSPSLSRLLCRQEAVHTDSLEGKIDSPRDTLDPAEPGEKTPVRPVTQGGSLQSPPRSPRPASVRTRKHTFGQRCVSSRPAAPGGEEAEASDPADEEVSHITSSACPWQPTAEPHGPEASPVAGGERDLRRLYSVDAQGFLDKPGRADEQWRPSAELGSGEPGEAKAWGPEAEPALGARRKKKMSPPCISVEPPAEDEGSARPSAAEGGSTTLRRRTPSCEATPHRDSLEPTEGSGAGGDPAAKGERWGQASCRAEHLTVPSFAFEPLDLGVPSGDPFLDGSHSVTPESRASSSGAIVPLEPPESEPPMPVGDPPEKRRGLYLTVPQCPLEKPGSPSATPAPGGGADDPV
Test: FLIPR calcium flux assay, HEK293 cells recombinantly expressing Cav3.2
Conditions: Cav3.2-channel, Fluo-4-AM, 3 min incubation, stimulation with 10 mM CaCl2
quantity name: IC50 (nM)
Hi! Could you send only the number? It should be in nM, unit omitted.

The measured IC50 associated with N#Cc1ccc(Cn2ccc(NC(=O)Cc3ccc(OC4COC4)cc3)n2)nc1 reads 2590

* * *

Target: voltage-dependent T-type calcium channel subunit alpha-1G (Cav3.2) (Homo sapiens)
Assay: FLIPR calcium flux assay, HEK293 cells recombinantly expressing Cav3.2
Conditions: Cav3.2-channel, Fluo-4-AM, 3 min incubation, stimulation with 10 mM CaCl2
Known IC50 of a selection of molecules
Provide only the numeric value, understood in nM.

Field: example entries. Status: answers known.
molecule	measured target	quantity name	unit abbrev	reported result
CC(C)c1cn(C)c2ccc(CC(=O)Nc3ccn(Cc4ccc(C#N)cn4)n3)cc12 [Example 324]	voltage-dependent T-type calcium channel subunit alpha-1G (Cav3.2) (Homo sapiens)	IC50	nM	31
O=C(Cc1ccc(OC2CC2)cc1)Nc1ccn(Cc2ccc(F)c(F)c2)n1 [Example 66]	voltage-dependent T-type calcium channel subunit alpha-1G (Cav3.2) (Homo sapiens)	IC50	nM	19
N#Cc1ccc(Cn2ccc(NC(=O)Cc3ccc(C4CC(F)(F)C4)cc3)n2)nc1 [Example 305]	voltage-dependent T-type calcium channel subunit alpha-1G (Cav3.2) (Homo sapiens)	IC50	nM	29
COc1ccc(Cn2ccc(NC(=O)Cc3ccc(OC4CC4)cc3)n2)cc1 [Example 65]	voltage-dependent T-type calcium channel subunit alpha-1G (Cav3.2) (Homo sapiens)	IC50	nM	74
CC1(c2ccc(CC(=O)Nc3ccn(Cc4ccc(C#N)cc4)n3)cc2)COC1 [Example 317]	voltage-dependent T-type calcium channel subunit alpha-1G (Cav3.2) (Homo sapiens)	IC50	nM	56

Summary for this molecule, CC(C)c1cn(C)c2ccc(CC(=O)Nc3ccn(Cc4ccc(F)c(C#N)c4)n3)cc12 [Example 328] : IC50 is 33

Query Cc1ccc(Cn2ccc(NC(=O)Cc3ccc(N(C)C)cc3)n2)cc1F [Example 32] yields IC50 of 7.6

The molecule listed as N#Cc1ccc(Cn2ccc(NC(=O)Cc3ccc(N4CC[C@@H](F)C4)nc3)n2)cc1 [Example 140] has a reported IC50 of 176

Sample N#Cc1ccc(Cn2ccc(NC(=O)Cc3cnc(N4CCCC4)c(F)c3)n2)nc1 [Example 341] ; IC50 observed: 64

Sure, the documented IC50 for N#Cc1ccc(Cn2ccc(NC(=O)Cc3ccc(N4CC(F)C4)nc3)n2)nc1 [Example 159] is 1180

Looking up N#Cc1c(F)cc(Cn2ccc(NC(=O)Cc3ccc(OCC4COC4)cc3)n2)cc1F [Example 360] , I see its IC50 listed as 360

* * *

Target: voltage-dependent T-type calcium channel subunit alpha-1G (Cav3.2) (Homo sapiens)
Experiment: FLIPR calcium flux assay, HEK293 cells recombinantly expressing Cav3.2
Conditions: Cav3.2-channel, Fluo-4-AM, 3 min incubation, stimulation with 10 mM CaCl2
quantity name: log10(IC50) (log10 of the value in nM)
Could you please treat all values as log10 of IC50 in nM?

The compound N#Cc1ccc(Cn2ccc(NC(=O)Cc3ccc(C4CC4)cc3)n2)nc1 [Example 78] , when measured on voltage-dependent T-type calcium channel subunit alpha-1G (Cav3.2) (Homo sapiens), yielded log10(IC50) of 2.44

CC1(C)COc2ccc(CC(=O)Nc3ccn(Cc4ccc(C#N)cn4)n3)cc21 [Example 379] tested on voltage-dependent T-type calcium channel subunit alpha-1G (Cav3.2) (Homo sapiens) gave log10(IC50): 2.82

The observed log10(IC50) for CCN(CC)c1ccc(CC(=O)Nc2ccn(Cc3ccc(OC)cc3)n2)cc1 [Example 112] when tested with voltage-dependent T-type calcium channel subunit alpha-1G (Cav3.2) (Homo sapiens) stands at 1.32

Reading of log10(IC50) for N#Cc1ccc(Cn2ccc(NC(=O)Cc3ccc(OCC4(F)COC4)cc3)n2)nc1 [Example 248] with voltage-dependent T-type calcium channel subunit alpha-1G (Cav3.2) (Homo sapiens): 3.26

Entry CN(C)c1ccc(CC(=O)Nc2ccn(Cc3ccc(OC(F)(F)F)cc3)n2)cn1 [Example 37] ; assay system voltage-dependent T-type calcium channel subunit alpha-1G (Cav3.2) (Homo sapiens); log10(IC50) recorded at 1.46

* * *

Attribute: pIC50
Target: voltage-dependent T-type calcium channel subunit alpha-1G (Cav3.2) (Homo sapiens, UniProt O95180)
Construct: expressed in transfected cells; host or cells: HEK293
Test: FLIPR calcium flux assay, HEK293 cells recombinantly expressing Cav3.2
Type: cell-based
Settings: Cav3.2-channel, Fluo-4-AM, 3 min incubation, stimulation with 10 mM CaCl2
Entry type: numeric. Quantity: pIC50, the -log10 of concentration in molar units.

// field: pIC50; key: O=C(Cc1ccc(N2CCC(F)(F)C2)cc1)Nc1ccn(Cc2ccc(F)cc2)n1 ; value = 8.04

compound O=C(Cc1ccc2[nH]c(=O)oc2c1)Nc1ccn(Cc2ccc(F)c(F)c2)n1 , pIC50 observed: 7.10

# pIC50 (compound: COc1ccc(Cn2ccc(NC(=O)Cc3ccc(N(C)C4CC4)nc3)n2)cc1 ) is 6.95

Entry N#Cc1ccc(Cn2ccc(NC(=O)Cc3ccc(OC4CCC4)cc3)n2)cc1 — recorded pIC50 = 7.27

* * *

Molecular target: voltage-dependent T-type calcium channel subunit alpha-1G (Cav3.2) (Homo sapiens)
Test: FLIPR calcium flux assay, HEK293 cells recombinantly expressing Cav3.2
Settings: Cav3.2-channel, Fluo-4-AM, 3 min incubation, stimulation with 10 mM CaCl2
Attribute: pIC50
Recall that pIC50 is obtained by taking minus log10 of the concentration measured in molar.

sample smiles	measured target	pIC50
Cc1cn(C)c2cc(CC(=O)Nc3ccn(Cc4ccc(F)c(C#N)c4)n3)ccc12	voltage-dependent T-type calcium channel subunit alpha-1G (Cav3.2) (Homo sapiens)	8.32

Please look at the following compound next.
Data point: CCN(C)c1ccc(CC(=O)Nc2ccn(Cc3ccc(F)cc3)n2)cn1 ; pIC50 = 6.86

* * *

Biological target: voltage-dependent T-type calcium channel subunit alpha-1G (Cav3.2) (Homo sapiens)
Test: FLIPR calcium flux assay, HEK293 cells recombinantly expressing Cav3.2
Settings: Cav3.2-channel, Fluo-4-AM, 3 min incubation, stimulation with 10 mM CaCl2
quantity name: IC50
Returns: string containing the numeric result and its unit.

sample smiles	measured target	quantity name	reported result
CCN(C)c1ccc(CC(=O)Nc2ccn(Cc3ccc(C#N)cn3)n2)cn1	voltage-dependent T-type calcium channel subunit alpha-1G (Cav3.2) (Homo sapiens)	IC50	0.98 µM
O=C(Cc1ccc(N2CC[C@@H](F)C2)cc1)Nc1ccn(Cc2ccc(F)cc2)n1	voltage-dependent T-type calcium channel subunit alpha-1G (Cav3.2) (Homo sapiens)	IC50	0.011 µM

Lab note: N#Cc1ccc(Cn2ccc(NC(=O)Cc3ccc(N4CC[C@H](F)C4)cc3)n2)nc1 gave IC50 of 0.075 µM

IC50 reading for CC1(COc2ccc(CC(=O)Nc3ccn(Cc4ccc(C#N)cc4)n3)cc2)CC(F)(F)C1 : 0.043 µM

* * *

Below: a set of entries, each annotated with reported IC50.
Target: voltage-dependent T-type calcium channel subunit alpha-1G (Cav3.2) (Homo sapiens)
Assay: FLIPR calcium flux assay, HEK293 cells recombinantly expressing Cav3.2
Settings: Cav3.2-channel, Fluo-4-AM, 3 min incubation, stimulation with 10 mM CaCl2
// return numeric value only (unit: µM, not printed)

compound	unit abbrev	IC50
CCc1cc(CC(=O)Nc2ccn(Cc3cc(C#N)c(F)cn3)n2)ccc1OCC(F)(F)F [Example 413]	µM	0.03
N#Cc1ccc(Cn2ccc(NC(=O)Cc3ccc(N4CCC(F)(F)C4)nc3)n2)cc1F [Example 294]	µM	0.022
CC(C)c1ccc(CC(=O)Nc2ccn(Cc3ccc(C4CC4)cn3)n2)cc1 [Example 96]	µM	0.053
CN(C)c1ccc(CC(=O)Nc2ccn(Cc3ccc(F)c(OC(F)(F)F)c3)n2)cc1 [Example 22]	µM	0.005
N#Cc1ccc(Cn2ccc(NC(=O)Cc3ccc(C4(F)COC4)cc3)n2)nc1 [Example 246]	µM	0.705

Noted for Cc1ccc(Cn2ccc(NC(=O)Cc3ccc4c(c3)c(C)nn4C)n2)nc1C#N [Example 368] : its IC50 reads 0.301

Entry under test: CCN(CC)c1ccc(CC(=O)Nc2ccn(Cc3ccc(F)c(F)c3)n2)cn1 [Example 124] . Its IC50 was 0.0099

Record CC(C)c1ccc(CC(=O)Nc2ccn(Cc3ccc(C#N)c(F)c3)n2)cc1 [Example 266] , field IC50: 0.0066

* * *

Overview of reported pIC50 across a group of compounds:
Target: voltage-dependent T-type calcium channel subunit alpha-1G (Cav3.2) (Homo sapiens, UniProt O95180)
Assay: FLIPR calcium flux assay, HEK293 cells recombinantly expressing Cav3.2
Settings: Cav3.2-channel, Fluo-4-AM, 3 min incubation, stimulation with 10 mM CaCl2
Scale: negative log10 of molar concentration, which is what pIC50 denotes.

The following compounds have reported results that may help.
sample smiles	pIC50
N#Cc1nc(Cn2ccc(NC(=O)Cc3ccc(OCC(F)(F)F)c(C4CC4)c3)n2)ccc1F	8.07
COCCN(C)c1ccc(CC(=O)Nc2ccn(Cc3ccc(F)c(F)c3)n2)cc1	8.47
COCCN(C)c1ccc(CC(=O)Nc2ccn(Cc3ccc(OC)cc3)n2)cc1	7.19
Cc1cc(CC(=O)Nc2ccn(Cc3cc(C#N)c(F)cn3)n2)ccc1OCCC(F)(F)F	7.39
O=C(Cc1ccc(-c2cccnc2)cc1)Nc1ccn(Cc2ccc(F)cc2)n1	7.59

Just so you know, measured pIC50 for O=C(Cc1ccc(OCC2(F)COC2)cc1)Nc1ccn(Cc2ccc(F)c(F)c2)n1 came out at 7.52

Field pIC50 (entry N#Cc1ccc(Cn2ccc(NC(=O)Cc3ccc(OCC4COC4)cc3)n2)cc1F ) reads 6.81

Recorded pIC50 (compound CC(C)c1ccc(CC(=O)Nc2ccn(Cc3ccc(F)c(C#N)c3)n2)cc1 ): 7.92
